# System: RAF1 (Homo sapiens, UniProt P04049)
# Sequence (P04049 whole entry): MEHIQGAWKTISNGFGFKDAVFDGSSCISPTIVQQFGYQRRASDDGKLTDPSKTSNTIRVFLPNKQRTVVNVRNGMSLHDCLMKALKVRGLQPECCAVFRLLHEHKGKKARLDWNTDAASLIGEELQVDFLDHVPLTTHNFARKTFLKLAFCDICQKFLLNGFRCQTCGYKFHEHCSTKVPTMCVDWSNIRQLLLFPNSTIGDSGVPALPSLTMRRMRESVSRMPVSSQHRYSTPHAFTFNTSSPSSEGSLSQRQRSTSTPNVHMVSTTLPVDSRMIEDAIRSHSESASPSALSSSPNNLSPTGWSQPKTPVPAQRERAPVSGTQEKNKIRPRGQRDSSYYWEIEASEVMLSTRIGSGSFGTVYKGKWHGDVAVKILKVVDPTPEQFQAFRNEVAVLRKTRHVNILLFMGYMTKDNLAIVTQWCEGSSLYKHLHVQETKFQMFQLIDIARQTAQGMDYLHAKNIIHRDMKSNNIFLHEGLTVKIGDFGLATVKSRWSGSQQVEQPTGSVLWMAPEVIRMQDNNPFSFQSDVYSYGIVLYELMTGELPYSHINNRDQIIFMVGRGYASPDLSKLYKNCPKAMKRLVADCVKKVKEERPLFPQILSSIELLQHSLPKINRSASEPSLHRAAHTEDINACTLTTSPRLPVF
# Experimental details: Cell-free kinase profiling, RAF1
# Assay type: biochemical
# Test conditions: 10-dose mode; read-out: IC50 value (nM) against RAF1
Recorded IC50 by entry
A complete answer gives the number followed by the unit.

Return reported IC50. Input compound: O=C(NCCNc1nccc(-c2c(-c3cccc(O)c3)nc3sccn23)n1)c1ccccc1O [Compound 1zc]
10.5 nM

Kindly review the next compound as well.
Supply reported IC50 belonging to this compound: O=C(NCCNc1nccc(-c2c(-c3cccc(O)c3)nc3sccn23)n1)c1ccc(N2CCOCC2)c(C(F)(F)F)c1 [Compound 1zg]
158 nM

###

# System: V600E-B-RAF (Homo sapiens, UniProt P15056, V600E)
# Sequence (P15056 whole entry V600E): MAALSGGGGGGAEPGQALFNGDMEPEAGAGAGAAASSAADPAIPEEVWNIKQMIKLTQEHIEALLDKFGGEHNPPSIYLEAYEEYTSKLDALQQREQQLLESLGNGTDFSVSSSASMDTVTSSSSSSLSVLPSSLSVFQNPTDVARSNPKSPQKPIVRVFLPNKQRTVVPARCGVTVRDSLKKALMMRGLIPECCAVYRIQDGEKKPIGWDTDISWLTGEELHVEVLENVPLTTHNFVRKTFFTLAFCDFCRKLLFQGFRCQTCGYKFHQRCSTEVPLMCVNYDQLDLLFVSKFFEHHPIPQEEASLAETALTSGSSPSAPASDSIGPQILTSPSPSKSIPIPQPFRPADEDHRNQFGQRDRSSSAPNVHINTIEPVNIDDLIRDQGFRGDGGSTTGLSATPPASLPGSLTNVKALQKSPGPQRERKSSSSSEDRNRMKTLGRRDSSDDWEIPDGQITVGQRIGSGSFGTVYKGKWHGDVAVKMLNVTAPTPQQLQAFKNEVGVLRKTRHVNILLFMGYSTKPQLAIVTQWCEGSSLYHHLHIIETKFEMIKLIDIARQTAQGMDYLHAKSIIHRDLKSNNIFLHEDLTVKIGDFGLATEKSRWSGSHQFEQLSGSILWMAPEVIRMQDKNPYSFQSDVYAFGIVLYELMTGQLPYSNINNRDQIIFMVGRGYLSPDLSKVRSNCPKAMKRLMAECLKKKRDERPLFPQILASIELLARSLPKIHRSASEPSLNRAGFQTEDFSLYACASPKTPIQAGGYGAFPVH
# Experimental details: Cell-free kinase profiling, V600E-B-RAF
# Assay type: biochemical
# Test conditions: 10-dose mode; read-out: IC50 value (nM) against V600E-B-RAF
Measure name: IC50
Answer shape: numeric part, then the unit.

Reference set (3 entries):
For the compound O=C(NCCNc1nccc(-c2c(-c3cccc(O)c3)nc3sccn23)n1)c1ccccc1 , give its reported IC50.
0.978 nM

Using known records, supply IC50 for COc1cccc(-c2nc3sccn3c2-c2ccnc(NCCNC(=O)c3ccccc3)n2)c1
45.1 nM

Identify IC50 associated with the compound O=C(NCCNc1nccc(-c2c(-c3cccc(O)c3)nc3sccn23)n1)c1ccccc1O
1.9 nM

New cases:
Fill in IC50 for record COc1cccc(-c2nc3sccn3c2-c2ccnc(NCCNC(=O)c3ccccc3O)n2)c1
100 nM
